Reference source for all entries: ChEMBL document CHEMBL4359893

Reported selectivity ratio values follow for various compounds
assay.comment: Selectivity index, ratio of CC50 for African green monkey Vero cells to IC50 for Trypanosoma cruzi Y strain bloodstream trypomastigotes isolated from infected Swiss webster mouse cardiac cells
Type: toxicity
recorded.conditions: read-out: Ratio CC50/IC50

{"columns": ["compound", "qualifying.sign", "selectivity ratio"],
 "data": [
  ["Nc1c(C2=NCCN2)cnn1-c1cc(Cl)cc(Cl)c1", "=", 8.3],
  ["O=C(Cn1ccnc1[N+](=O)[O-])NCc1ccccc1 [BENZNIDAZOLE]", ">", 21.4],
  ["Nc1c(C2=NCCN2)cnn1-c1cccc(Cl)c1", ">", 15.9],
  ["Nc1c(C2=NCCN2)cnn1-c1ccc(Cl)cc1", ">", 5.9],
  ["Nc1c(C2=NCCN2)cnn1-c1ccc(Br)cc1", ">", 9.5],
  ["Nc1c(C2=NCCN2)cnn1-c1ccc(Cl)c(Cl)c1", "=", 8.6],
  ["Nc1c(C2=NCCN2)cnn1-c1cccc(Br)c1", "=", 12.7]
]}

* * *

Test system: Trypanosoma cruzi
assay.comment: Trypanocidal activity against luciferase expressing Trypanosoma cruzi Dm28c trypomastigotes isolated from infected Vero cells assessed as reduction in parasite viability after 24 hrs by luciferase-luminescence assay
Format: functional, organism-based
pIC50: −log10 of the molar value.
Reported pIC50 values follow for various molecules

{"columns": ["compound.structure.string", "pIC50"],
 "data": [
  ["Nc1c(C2=NCCN2)cnn1-c1ccc(Cl)cc1", 4.10],
  ["Nc1c(C2=NCCN2)cnn1-c1ccc(F)cc1", "< 4.00"],
  ["Nc1c(C2=NCCN2)cnn1-c1cccc(Cl)c1", 4.27],
  ["Nc1c(C2=NCCCN2)cnn1-c1cccc(Cl)c1", "< 4.00"],
  ["COc1ccc(-n2ncc(C3=NCCN3)c2N)cc1", "< 4.00"],
  ["COc1ccc(-n2ncc(C3=NCCCN3)c2N)cc1", "< 4.00"],
  ["Nc1c(C2=NCCCN2)cnn1-c1ccc(Cl)c(Cl)c1", "< 4.00"]
]}

* * *

Test system: Trypanosoma cruzi
assay.comment: Trypanocidal activity against luciferase expressing Trypanosoma cruzi Dm28c trypomastigotes isolated from infected Vero cells assessed as reduction in parasite viability after 24 hrs by luciferase-luminescence assay
Assay type: functional, organism-based
Reported IC90 values follow for various compounds

{"columns": ["compound", "IC90"],
 "data": [
  ["Nc1c(C2=NCCCN2)cnn1-c1ccccc1", "> 100 µM"],
  ["COc1ccc(-n2ncc(C3=NCCCN3)c2N)cc1", "> 100 µM"],
  ["Nc1c(C2=NCCN2)cnn1-c1ccccc1", "> 100 µM"],
  ["Nc1c(C2=NCCN2)cnn1-c1cccc(Cl)c1", "81.1 µM"],
  ["Nc1c(C2=NCCN2)cnn1-c1ccc(Cl)cc1", "> 100 µM"],
  ["Nc1c(C2=NCCCN2)cnn1-c1ccc(Cl)c(Cl)c1", "> 100 µM"],
  ["Nc1c(C2=NCCCN2)cnn1-c1cccc(Cl)c1", "> 100 µM"],
  ["Nc1c(C2=NCCN2)cnn1-c1ccc(Cl)c(Cl)c1", "29 µM"],
  ["Nc1c(C2=NCCCN2)cnn1-c1ccc(F)cc1", "> 100 µM"],
  ["Nc1c(C2=NCCN2)cnn1-c1cccc(Br)c1", "> 100 µM"],
  ["COc1ccc(-n2ncc(C3=NCCN3)c2N)cc1", "> 100 µM"],
  ["Nc1c(C2=NCCN2)cnn1-c1ccc(F)cc1", "> 100 µM"],
  ["Nc1c(C2=NCCN2)cnn1-c1ccc(Br)cc1", "> 100 µM"],
  ["Nc1c(C2=NCCCN2)cnn1-c1cccc(Br)c1", "> 100 µM"],
  ["O=C(Cn1ccnc1[N+](=O)[O-])NCc1ccccc1 [BENZNIDAZOLE]", "94.1 µM"],
  ["Nc1c(C2=NCCN2)cnn1-c1cc(Cl)cc(Cl)c1", "28.9 µM"],
  ["Nc1c(C2=NCCCN2)cnn1-c1cc(Cl)cc(Cl)c1", "> 100 µM"],
  ["Nc1c(C2=NCCCN2)cnn1-c1ccc(Cl)cc1", "> 100 µM"],
  ["Nc1c(C2=NCCCN2)cnn1-c1ccc(Br)cc1", "> 100 µM"]
]}
